Cited source: paper PMC9227765

System: EV-A71 H strain
TEST DESCRIPTION: CPE protection assay, EV-A71 H strain (CellTiter-Glo)
Assay type: cell-based
CONDITION DESCRIPTION: Enterovirus A, EVA71, Huh-7; Huh7 cells, 100× TCID50, 72 h.p.i.; read-out: EC50 against EV-A71 virus
MEASUREMENT LABEL: pEC50
Formally, pEC50 is defined as -log10 of the concentration c, with c in mol/L.

O=c1[nH]c(=NO)ccn1[C@@H]1O[C@H](CO)[C@@H](O)[C@H]1O [EIDD-1931, β-D-N^4-hydroxycytidine]    5.35

Please examine the following record next.
Entry under review: CC(C)C(=O)OC[C@H]1O[C@@H](n2ccc(NO)nc2=O)[C@H](O)[C@@H]1O [EIDD-2801, molnupiravir] . Reported pEC50?
4.45

* * *

Tested on: CV-A16 190-D1 strain
TEST DESCRIPTION: CPE protection assay, CV-A16
Type: cell-based, coxsackievirus A16
CONDITION DESCRIPTION: Enterovirus A, CVA16, CV-A16 190-D1, RD
MEASUREMENT LABEL: EC50 (µM)
The figure you give is taken to be in µM; do not add the unit.

Form entry - test system: CV-A16 190-D1 strain; read-out: EC50; compound: CC(C)C(=O)OC[C@H]1O[C@@H](n2ccc(NO)nc2=O)[C@H](O)[C@@H]1O [EIDD-2801, molnupiravir]
44.9
